system: T1, Recombinant human G-CSFR (Glu25-Pro621, 381-GR/CF, R&D Systems) (human, UniProt Q99062 25-621)
T1 construct: range 25-621; Bought protein, amine-coupled to a CM5 chip for SPR; also called rhG-CSFR; granulocyte-colony stimulating factor receptor
T1 sequence (looked up): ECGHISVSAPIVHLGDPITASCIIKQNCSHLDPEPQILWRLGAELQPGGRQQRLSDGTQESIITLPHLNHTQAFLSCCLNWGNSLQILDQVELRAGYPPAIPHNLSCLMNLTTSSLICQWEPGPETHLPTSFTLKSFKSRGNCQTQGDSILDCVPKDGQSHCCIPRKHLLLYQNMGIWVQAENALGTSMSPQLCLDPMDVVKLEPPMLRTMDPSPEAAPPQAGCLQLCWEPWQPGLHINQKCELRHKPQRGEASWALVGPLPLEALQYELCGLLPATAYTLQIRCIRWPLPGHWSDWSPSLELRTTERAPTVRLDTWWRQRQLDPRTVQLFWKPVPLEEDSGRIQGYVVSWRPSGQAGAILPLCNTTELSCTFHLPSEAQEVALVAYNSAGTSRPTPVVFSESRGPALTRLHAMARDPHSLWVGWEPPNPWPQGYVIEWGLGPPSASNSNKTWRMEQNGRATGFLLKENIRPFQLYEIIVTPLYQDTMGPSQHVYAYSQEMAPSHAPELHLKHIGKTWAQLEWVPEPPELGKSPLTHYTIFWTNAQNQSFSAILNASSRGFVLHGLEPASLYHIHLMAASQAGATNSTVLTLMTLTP
assaySummary: SPR, Biacore X100, multi-cycle kinetics, rhG-CSFR amine-coupled to CM5 chip, design as analyte, 1:1 model; series of Fig. 6 (from 20 nM)
attributeMeasured: kon (M⁻¹ s⁻¹)
The reply should be a number in M⁻¹ s⁻¹, with the unit left off.

[
  {
    "binder": "bop2 (designed binder, Strictly monomeric in solution; Expressed from pET28a downstream of an N-terminal His-tag and thrombin cleavage site; also called bivalent-orientation parallel design 2) MAALDAALYDIYDGLILYQQQLESLEGISPELGPALDALRYDMADFAILMAQAMEEGLDSLPQSFLRKALEMIRKIQADAAALREKLAATYKGNDRAAAAQSIARKLEEMLRKAYQDLRHLAAA",
    "kon, M⁻¹ s⁻¹": "1.9e+06"
  }
]

Query binder follows.
**Q:** What kon value was documented for this binder, boa2 (designed binder, Strictly monomeric in solution; Expressed from pET28a downstream of an N-terminal His-tag and thrombin cleavage site; also called bivalent-orientation antiparallel design 2) MAALAAALQSIYRKLAEMQRKLKSLEGISPELGPALDALRYDMADFAILMAQAMEEGLDSLPQSFLRKALEMIRKIQADAAALREKLAATYKGNDRADAAVYDAADLEILLEQAYEILRHLAAA ?
**A:** 1.4e+06

Where do these numbers come from? They come from patent EP4670784A1.
